The entries below pair molecules with Ki values for 5-hydroxytryptamine receptor 4 (Cavia porcellus), as found in several publications.
Each record's Ki is compared with low (below 0.7 nM), moderate (0.7 nM to below 50 nM), high (50 nM or more) to give its class.

COc1cc(N)c(Cl)cc1C(=O)OCCN1CCC(NC(=O)NCCOCCOCCNC(=O)NCC(=O)O)CC1 high
CCCCN1CCC(COC(=O)c2cc(OC)nc3ccccc23)CC1 low
CCCCN1CCC(COc2nc3sccc3n3cccc23)CC1 moderate
CC(C)n1c(=O)n(C(=O)NCCN2CCN(CCCOc3ccc(F)cc3)CC2)c2ccccc21 high
CCCCN1CCC(COC(=O)c2cc(Cl)c(N)c3c2OCCO3)CC1 low
COc1ccc(CCCN2CCC(CCC(=O)c3cc(Cl)c(N)c4c3OCCO4)CC2)cc1OC low
CN1CCN(CCNC(=O)n2c(=O)n(C3CC3)c3ccccc32)CC1 moderate
c1cc2c(OCCCN3CCCCC3)nc3ccsc3n2c1 high
C=CCCN1CCC(COc2nc3ccsc3n3cccc23)CC1 moderate
c1ccc(CCCN2CCC(COc3nc4ccsc4n4cccc34)CC2)cc1 high
